Reported T/C values for the following compounds.
# Tested on: L1210 leukemia ip in BDF1 mice, survival T/C
# Measurement notes: NCI In Vivo Anticancer Drug Screen. Data for tumor model L1210 Leukemia (intraperitoneal) in B6D2F1 (BDF1) mice
# Run parameters: endpoint: mean survival time; dose: 25.0 mg/kg/injection; schedule: Q04DX003 (ip); vehicle: Klucel (hydroxypropylcellulose) (HPC); higher = longer survival
Inconclusive results and toxic doses are left out.

Some compounds with known T/C results, for comparison:
| Compound | Result |
| --- | --- |
| CCN(CC)CCCC(C)Nc1ccnc(/C=C/c2ccc(Br)cc2)c1 (centres undefined) | 108 % of control |
| O=C(/C=C/c1cccc([N+](=O)[O-])c1)c1cccc([N+](=O)[O-])c1 | 94 % of control |
| CCOC(=O)c1c[nH]c2nc(SC)[nH]c(=O)c2c1=O | 104 % of control |
| O=C(CI)Nc1cc(C(F)(F)F)ccc1Cl | 102 % of control |
| CN(C)C(=S)Oc1ccccn1 | 106 % of control |

Give T/C for Cc1cc(C)c(S(=O)(=O)c2c(C)cc(C)cc2C)c(C)c1
100 % of control

Quote T/C reported for Nc1ccc([N+](=O)[O-])cc1[N+](=O)[O-] please.
103 % of control

Give recorded T/C. O=S1(=O)C=C(c2ccccc2)C(c2ccccc2)=C1
95 % of control

Given the compound CC[n+]1c(C)ccc2ccccc21 , write its reported T/C.
99 % of control

----------
# System: L1210 leukemia ip in BDF1 mice, survival T/C
# Measurement notes: NCI In Vivo Anticancer Drug Screen. Data for tumor model L1210 Leukemia (intraperitoneal) in B6D2F1 (BDF1) mice
# Run parameters: endpoint: mean survival time; dose: 400.0 mg/kg/injection; schedule: Q04DX002 (ip); vehicle: saline; higher = longer survival
Inconclusive results and toxic doses are left out.
Assay endpoint: T/C

Would you please look over these solved cases?
| Compound | T/C |
| --- | --- |
| CCCCCCCCC(=O)N1CCCC(C)C1 (configuration not stated) | 101 % of control |
| CC1(C)OC2OC(C(O)CO)C(O)C2O1 (configuration not stated) | 90 % of control |
| CC1CCCN(C(=O)Nc2ccccc2)C1 (configuration not stated) | 96 % of control |
| CN(C)C(=O)CCC(=O)O | 97 % of control |
| COc1ccc(OC(C)OCCOCCOC(C)=O)cc1 (configuration not stated) | 107 % of control |
| COc1ccc(C(=O)OCc2ccccc2CN2CCCCC2C)cc1 (configuration not stated) | 86 % of control |

Would you kindly look at the next entry?
// fetch T/C given entry C1C[N+]2(CCO1)CC[N+]1(CCOCC1)CC2
100 % of control

----------
# System: L1210 leukemia ip in BDF1 mice, survival T/C
# Measurement notes: NCI In Vivo Anticancer Drug Screen. Data for tumor model L1210 Leukemia (intraperitoneal) in B6D2F1 (BDF1) mice
# Run parameters: endpoint: mean survival time; dose: 400.0 mg/kg/injection; schedule: Q04DX002 (ip); vehicle: Klucel (hydroxypropylcellulose) (HPC); higher = longer survival
Inconclusive results and toxic doses are left out.
Listed compounds paired with reported T/C

| Compound | T/C |
| --- | --- |
| CCOC(=O)CNc1cc(C)ccc1C | 95 % of control |
| CCCCCCCCCCC/C=N\N(C)C | 103 % of control |
| CCN(CC)C(=O)Nc1cccc(N)c1 | 97 % of control |
| O=C1CC(C(Cl)(Cl)Cl)O1 (stereo not given) | 106 % of control |
| C=C[C@H]1CN2CC[C@H]1C[C@@H]2[C@@H](O)c1ccnc2ccccc12 | 96 % of control |

Note down T/C recorded for CC1CCCN(C(=O)/C=C/c2ccccc2)C1 (stereo not given)
95 % of control

Input CCCCCCCCCCCCNC(C)=O , output reported T/C.
106 % of control

Please give measured T/C of the following entry: CCN(CC)C(=O)Nc1cccc([N+](=O)[O-])c1
101 % of control

Provide measured T/C value, entry: NC(=O)/C=C/C(=O)O
91 % of control

Identify T/C associated with the compound Cc1ccc2[nH]c(CC#N)cc2c1
100 % of control

Complete the entry with T/C for O=C(CCc1ccc(O)cc1)c1ccccc1
94 % of control

Return reported T/C. Input compound: CCc1ccccc1NC(=O)Nc1ccc(C(=O)O)c(O)c1
102 % of control

Identify the reported T/C for the following entry. O=C(O)C12C3CCC(O3)C1(C(=O)O)C1CCC2O1 (stereo not given)
104 % of control

Indicate its recorded T/C; the compound in question is CC(CC(=O)C[N+](=O)[O-])=Nc1ccccc1
97 % of control

# return recorded T/C for input COc1ccc(C(=O)N/N=C/c2ccc(NC(C)=O)cc2)cc1
115 % of control

Consider the compound O=C1Nc2ccccc2C2=C3CCCCC3=NNC12 (stereo not given) and give its recorded T/C.
108 % of control

Output T/C of CCOC(=O)c1ccc(N2C(=O)CC(Sc3ccccc3N)C2=O)cc1 (stereo not given)
113 % of control

Give T/C for the following compound: CCCCCCCS(=O)(=O)c1nc2ccccc2[nH]1
104 % of control
